test system: MDA-MB-231 multicell spheroids, viability (%T/C); assay: Anticancer human tumor MDA-MB-231 cell line growth inhibition [IpAb]; conditions: second compound 0.1 µM; first compound 0.01 µM; stronger effect = lower value;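 further: viability read after seven days of drug exposure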;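 on viability, T/C: 100% = DMSO vehicle control viability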
Recorded viability, T/C values for a group of compounds are listed next.
Return type: number; implicit unit %.

Fill blank: measured viability, T/C of the compound COc1c(OCCCN2CCOCC2)ccc2c3n(c(=NC(=O)c4cnc(N)nc4)nc12)CCN3 + CC(C)NCC(C(=O)N1CCN(c2ncnc3c2C(C)CC3O)CC1)c1ccc(Cl)cc1 is ____.
70.1

Could you tell me which viability, T/C is on file for CC(C)n1nc(-c2ccc3oc(N)nc3c2)c2c(N)ncnc21 + CCN1CCN(Cc2ccc(Nc3ncc(F)c(-c4cc(F)c5nc(C)n(C(C)C)c5c4)n3)nc2)CC1 ?
30.2

GET /values?readout=viability, T/C&item= Cn1ncnc1[C@H]1c2n[nH]c(=O)c3cc(F)cc(c23)N[C@@H]1c1ccc(F)cc1 + CCN1CCN(Cc2ccc(Nc3ncc(F)c(-c4cc(F)c5nc(C)n(C(C)C)c5c4)n3)nc2)CC1
51.1

---

system: MDA-MB-231 multicell spheroids, viability (%T/C); experiment: Anticancer human tumor MDA-MB-231 cell line growth inhibition [IpAb]; settings: second compound 0.316 µM; first compound 1 µM; stronger effect = lower value;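 further: viability read after seven days of drug exposure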;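 on viability, T/C: 100% = DMSO vehicle control viability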
viability, T/C values for the molecules below.
Numeric answer only, unit % assumed.

Take a look at these entries with their results.
{"molecule": "Cn1nccc1Nc1nccc(-c2ccn(C(CO)c3ccc(Cl)c(F)c3)c(=O)c2)n1 (stereo not given) + CC(C)NCC(C(=O)N1CCN(c2ncnc3c2C(C)CC3O)CC1)c1ccc(Cl)cc1", "quantity unit": "%", "experimental result": 29.3}
{"molecule": "C=CCn1c(=O)c2cnc(Nc3ccc(N4CCN(C)CC4)cc3)nc2n1-c1cccc(C(C)(C)O)n1 + CCN1CCN(Cc2ccc(Nc3ncc(F)c(-c4cc(F)c5nc(C)n(C(C)C)c5c4)n3)nc2)CC1", "quantity unit": "%", "experimental result": 32.9}
{"molecule": "C=CCn1c(=O)c2cnc(Nc3ccc(N4CCN(C)CC4)cc3)nc2n1-c1cccc(C(C)(C)O)n1 + CC(C)NCC(C(=O)N1CCN(c2ncnc3c2C(C)CC3O)CC1)c1ccc(Cl)cc1", "quantity unit": "%", "experimental result": 17.3}
{"molecule": "COc1c(OCCCN2CCOCC2)ccc2c3n(c(=NC(=O)c4cnc(N)nc4)nc12)CCN3 + CCN1CCN(Cc2ccc(Nc3ncc(F)c(-c4cc(F)c5nc(C)n(C(C)C)c5c4)n3)nc2)CC1", "quantity unit": "%", "experimental result": 67.5}

Turning now to a further record.
Any idea what viability, T/C was measured for CCCS(=O)(=O)Nc1ccc(F)c(C(=O)c2c[nH]c3ncc(-c4ccc(Cl)cc4)cc23)c1F + CCN1CCN(Cc2ccc(Nc3ncc(F)c(-c4cc(F)c5nc(C)n(C(C)C)c5c4)n3)nc2)CC1 ?
47.8

---

The entries below are paired with their reported viability, T/C.
test system: MDA-MB-231 multicell spheroids, viability (%T/C); assay: Anticancer human tumor MDA-MB-231 cell line growth inhibition [IpAb]; details: second compound 0.316 µM; first compound 0.3 µM; stronger effect = lower value;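 further: viability read after seven days of drug exposure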;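 on viability, T/C: 100% = DMSO vehicle control viability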
Could you give me the number in %? Just the number is fine.

{"compound": "CC(=O)c1c(C)c2cnc(Nc3ccc(N4CCNCC4)cn3)nc2n(C2CCCC2)c1=O + CCN1CCN(Cc2ccc(Nc3ncc(F)c(-c4cc(F)c5nc(C)n(C(C)C)c5c4)n3)nc2)CC1", "viability, T/C (%)": 42}
{"compound": "CC(=O)c1c(C)c2cnc(Nc3ccc(N4CCNCC4)cn3)nc2n(C2CCCC2)c1=O + CC(C)NCC(C(=O)N1CCN(c2ncnc3c2C(C)CC3O)CC1)c1ccc(Cl)cc1", "viability, T/C (%)": 32}
{"compound": "CC(C)(C)c1cnc(CSc2cnc(NC(=O)C3CCNCC3)s2)o1 + CCN1CCN(Cc2ccc(Nc3ncc(F)c(-c4cc(F)c5nc(C)n(C(C)C)c5c4)n3)nc2)CC1", "viability, T/C (%)": 1.36}

Need viability, T/C of CC(C)(C)c1cnc(CSc2cnc(NC(=O)C3CCNCC3)s2)o1 + CC(C)NCC(C(=O)N1CCN(c2ncnc3c2C(C)CC3O)CC1)c1ccc(Cl)cc1 , thanks.
1.35

Record request: viability, T/C value, item Cn1cnc2c(F)c(Nc3ccc(Br)cc3Cl)c(C(=O)NOCCO)cc21 + CC(C)NCC(C(=O)N1CCN(c2ncnc3c2C(C)CC3O)CC1)c1ccc(Cl)cc1
24.1

Quick one: viability, T/C of Cn1cnc2c(F)c(Nc3ccc(Br)cc3Cl)c(C(=O)NOCCO)cc21 + CCN1CCN(Cc2ccc(Nc3ncc(F)c(-c4cc(F)c5nc(C)n(C(C)C)c5c4)n3)nc2)CC1 ?
19.2

---

test system: MDA-MB-231 multicell spheroids, viability (%T/C); test: Anticancer human tumor MDA-MB-231 cell line growth inhibition [IpAb]; conditions: curve of first compound; second compound 0.0316 µM;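 further: viability read after seven days of drug exposure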
property name: pIC50
pIC50 here is simply -log10 of the concentration when that concentration is written in mol/L.

Param item = C=CCn1c(=O)c2cnc(Nc3ccc(N4CCN(C)CC4)cc3)nc2n1-c1cccc(C(C)(C)O)n1 + CCN1CCN(Cc2ccc(Nc3ncc(F)c(-c4cc(F)c5nc(C)n(C(C)C)c5c4)n3)nc2)CC1 ; retrieve measured pIC50.
6.68

Suppose we examine the molecule CC(C)n1nc(-c2ccc3oc(N)nc3c2)c2c(N)ncnc21 + CCN1CCN(Cc2ccc(Nc3ncc(F)c(-c4cc(F)c5nc(C)n(C(C)C)c5c4)n3)nc2)CC1 ; what pIC50 value has been reported?
8.57

---

tested on: MDA-MB-231 multicell spheroids, viability (%T/C); assay: Anticancer human tumor MDA-MB-231 cell line growth inhibition [IpAb]; settings: second compound 0.316 µM; first compound 0.316 µM; stronger effect = lower value;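 further: viability read after seven days of drug exposure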;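 on viability, T/C: 100% = DMSO vehicle control viability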
property name: viability, T/C (%)
Field: numeric (%). Do not append units.

{"compound": "CC1(C)CCC(CN2CCN(c3ccc(C(=O)NS(=O)(=O)c4ccc(NCC5CCOCC5)c([N+](=O)[O-])c4)c(Oc4cnc5[nH]ccc5c4)c3)CC2)=C(c2ccc(Cl)cc2)C1 + CCN1CCN(Cc2ccc(Nc3ncc(F)c(-c4cc(F)c5nc(C)n(C(C)C)c5c4)n3)nc2)CC1", "viability, T/C / %": 48.2}
{"compound": "COc1c(OCCCN2CCOCC2)ccc2c3n(c(=NC(=O)c4cnc(N)nc4)nc12)CCN3 + CC(C)NCC(C(=O)N1CCN(c2ncnc3c2C(C)CC3O)CC1)c1ccc(Cl)cc1", "viability, T/C / %": 31.7}
{"compound": "CCCS(=O)(=O)Nc1ccc(F)c(C(=O)c2c[nH]c3ncc(-c4ccc(Cl)cc4)cc23)c1F + CC(C)NCC(C(=O)N1CCN(c2ncnc3c2C(C)CC3O)CC1)c1ccc(Cl)cc1", "viability, T/C / %": 92.2}

Using the record for C=CC(=O)N1CCN(c2nc(=O)n(-c3c(C)ccnc3C(C)C)c3nc(-c4c(O)cccc4F)c(F)cc23)C(C)C1 (stereo unspecified) + CCN1CCN(Cc2ccc(Nc3ncc(F)c(-c4cc(F)c5nc(C)n(C(C)C)c5c4)n3)nc2)CC1 , report its viability, T/C.
58.6

Look up viability, T/C for this compound: CCCS(=O)(=O)Nc1ccc(F)c(C(=O)c2c[nH]c3ncc(-c4ccc(Cl)cc4)cc23)c1F + CCN1CCN(Cc2ccc(Nc3ncc(F)c(-c4cc(F)c5nc(C)n(C(C)C)c5c4)n3)nc2)CC1
51

Please look up its viability, T/C: Cc1nc(NC(=O)N2CCCC2C(N)=O)sc1-c1ccnc(C(C)(C)C(F)(F)F)c1 (stereo unspecified) + CCN1CCN(Cc2ccc(Nc3ncc(F)c(-c4cc(F)c5nc(C)n(C(C)C)c5c4)n3)nc2)CC1
37.3

---

system: MDA-MB-231 multicell spheroids, viability (%T/C); assay: Anticancer human tumor MDA-MB-231 cell line growth inhibition [IpAb]; settings: second compound 0.316 µM; first compound 1 µM; stronger effect = lower value;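 further: viability read after seven days of drug exposure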;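 on viability, T/C: 100% = DMSO vehicle control viability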
property name: viability, T/C (%)
Quick reminder: number only, in %, skip the unit.

Some solved entries appear below for comparison.
{"compound": "C=CC(=O)N1CCN(c2nc(=O)n(-c3c(C)ccnc3C(C)C)c3nc(-c4c(O)cccc4F)c(F)cc23)C(C)C1 (stereo not given) + CC(C)NCC(C(=O)N1CCN(c2ncnc3c2C(C)CC3O)CC1)c1ccc(Cl)cc1", "viability, T/C [%]": 111}
{"compound": "CCCS(=O)(=O)Nc1ccc(F)c(C(=O)c2c[nH]c3ncc(-c4ccc(Cl)cc4)cc23)c1F + CC(C)NCC(C(=O)N1CCN(c2ncnc3c2C(C)CC3O)CC1)c1ccc(Cl)cc1", "viability, T/C [%]": 87.3}
{"compound": "Cn1nccc1Nc1nccc(-c2ccn(C(CO)c3ccc(Cl)c(F)c3)c(=O)c2)n1 (stereo not given) + CCN1CCN(Cc2ccc(Nc3ncc(F)c(-c4cc(F)c5nc(C)n(C(C)C)c5c4)n3)nc2)CC1", "viability, T/C [%]": 20.6}
{"compound": "Cn1ncc(Cl)c1-c1cc(C(=O)NC(CN)Cc2cccc(F)c2)sc1Cl (stereo not given) + CCN1CCN(Cc2ccc(Nc3ncc(F)c(-c4cc(F)c5nc(C)n(C(C)C)c5c4)n3)nc2)CC1", "viability, T/C [%]": 30.5}

Let us move to another entry and its viability, T/C.
Which viability, T/C is listed for Cn1ncc(Cl)c1-c1cc(C(=O)NC(CN)Cc2cccc(F)c2)sc1Cl (stereo not given) + CC(C)NCC(C(=O)N1CCN(c2ncnc3c2C(C)CC3O)CC1)c1ccc(Cl)cc1 ?
49

The reported measurements were obtained from PubChem BioAssay AID2060328.
